# ELISA reading at 0.0556 µg/ml biotin-PDL1-FC annotations
Biological target: Biotin QP004.3 (biotin-PDL1-FC) (human) (UniProt Q9NZQ7)
Sequence (Q9NZQ7 19-238 limits assumed): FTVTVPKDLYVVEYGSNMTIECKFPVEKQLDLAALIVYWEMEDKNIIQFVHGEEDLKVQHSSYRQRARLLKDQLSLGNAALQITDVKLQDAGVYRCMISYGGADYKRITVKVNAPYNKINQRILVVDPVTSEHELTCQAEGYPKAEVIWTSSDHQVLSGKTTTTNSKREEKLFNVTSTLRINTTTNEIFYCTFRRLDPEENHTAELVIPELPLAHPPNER
Assay: binding ELISA, antibody coated, biotin-PDL1-FC titrated
Lab note: record just the number, no unit beside it.

The examples below pair each entry with its known result.
QP325 (Fc fusion, not shown: a dimerising Fc or GST) EVQLLESGGGLVQPGGSLRLSCAASGFTYGTYAMSWFRQAPGKGLEGVACIDIYGRTSYTDPVKGRFTISQDNSKNTLYLQMNSLRAEDTAVYYCAARDFGYCTASWVHEGFSRYWGQGTLVTVSS: 2.78
QP324 (Fc fusion, not shown: a dimerising Fc or GST) EVQLLESGGGLVQPGGSLRLSCAASGFTYGTYAMSWVRQAPGKGLEWVACIDIYGRTSYTDPVKGRFTISQDNSKNTLYLQMNSLRAEDTAVYYCAARDFGYCTASWVHEGFSRYWGQGTLVTVSS: 0.0882
QP1166 (Fc fusion, not shown: a dimerising Fc or GST) QVQLVESGGDSVQPGGSLRLSCAASGFTYGTYAMSWFRQAPGKEREGVACIDIYGRTSYTDPVKGRFTISQDNAKNTLYLQMNSLKPEDTAMYYCAARDFGYCTASWVHEGFSRYWGQGTQVTVSS: 3.23

We next turn to a different binder, shown below.
**Q:** Return ELISA reading at 0.0556 µg/ml biotin-PDL1-FC for the following binder: QP320 (Fc fusion, not shown: a dimerising Fc or GST) EVQLLESGGGLVQPGGSLRLSCAASGFTYGTYAMSWVRQAPGKGLEWVSCIDIYGRASYTDPVKGRFTISRDNSKNTLYLQMNSLRAEDTAVYYCAARDFGYCTASWVHEGFSRYWGQGTLVTVSS
**A:** 0.0843
